# experiment_summary: Oral fluid concentrations of methylone (LC-MS/MS)
# Type: in vivo, humans
# stated_conditions: human, oral fluid; 150 or 200 mg oral, n=12
property: Cmax (µg/mL)
// return numeric value only (unit: µg/mL, not printed)

Any idea what Cmax was measured for CNC(C)C(=O)c1ccc2c(c1)OCO2 (stereo not shown) [Methylone, 3,4-methylenedioxy-N-methylcathinone] ?
17.2

* * *

# experiment_summary: Oral fluid concentrations of clephedrone (GC-MS/MS)
# Format: in vivo, humans
# stated_conditions: both sexes, human, 100 or 150 mg oral, n=8
property: Cmax (ng/mL)
// return numeric value only (unit: ng/mL, not printed)

Any idea what Cmax was measured for CNC(C)C(=O)c1ccc(Cl)cc1 (stereo not shown) ?
6410
